Cited source: PubChem BioAssay AID248

# T/C annotations
Test system: L1210 leukemia ip in BDF1 mice, survival T/C
assay_details: NCI In Vivo Anticancer Drug Screen. Data for tumor model L1210 Leukemia (intraperitoneal) in B6D2F1 (BDF1) mice
details: endpoint: mean survival time; dose: 200.0 mg/kg/injection; schedule: Q01DX009 (ip); vehicle: saline with Tween-80; higher = longer survival
Inconclusive results and toxic doses are left out.
result_type: T/C

CCC(=O)c1cc([N+](=O)[O-])ccc1NC(C)=O; 94 % of control
NC(=O)c1cnc(N)nc1C(N)=O; 100 % of control
CC(C)(C)NC1CCCC1Cl (stereo not drawn); 102 % of control
